Target: PSA (Homo sapiens)
Sequence (P07288 25-261): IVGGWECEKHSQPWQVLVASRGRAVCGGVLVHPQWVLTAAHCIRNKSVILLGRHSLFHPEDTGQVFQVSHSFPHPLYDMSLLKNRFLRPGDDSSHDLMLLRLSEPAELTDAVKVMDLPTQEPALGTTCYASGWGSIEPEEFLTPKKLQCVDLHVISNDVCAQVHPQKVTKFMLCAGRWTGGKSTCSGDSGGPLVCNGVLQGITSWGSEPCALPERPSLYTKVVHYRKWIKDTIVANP
Assay: Enzyme activity of PSA with chromogenic substrate S-2586
Assay type: biochemical
Parameters: PSA was purified from human seminal fluid as described previously (3); from tissue; host or cells: human seminal fluid
Details: GST-peptides; PSA 0.33 μM, S-2586; read-out: 50% stimulation (μM): peptide concentration required for half maximal stimulation of the enzyme activity of PSA
Description: The enzyme activity of PSA was studied in the presence of peptides alone or together with Zn^2+ by using the chymotrypsin substrate S-2586 (MeO-Suc-Arg-Pro-Tyr-pNA) (Chromogenix, Mölndal, Sweden). […] After addition of substrate to a final concentration 0.2 mM, the absorbance was monitored at 5-min intervals for 2 h at 405 nm on a Labsystems Multiskan MCC/340 photometer (Labsystems, Helsinki, Finland). […] As control the enzyme activity of PSA alone was measured. […]
Quantity Measured: EC50

1. CVFTSDYAFC [Peptide A-1]: 2.2 µM
